ASSAYED_TARGET: wt PKR (Homo sapiens, UniProt P30613)
Sequence (P30613 whole entry): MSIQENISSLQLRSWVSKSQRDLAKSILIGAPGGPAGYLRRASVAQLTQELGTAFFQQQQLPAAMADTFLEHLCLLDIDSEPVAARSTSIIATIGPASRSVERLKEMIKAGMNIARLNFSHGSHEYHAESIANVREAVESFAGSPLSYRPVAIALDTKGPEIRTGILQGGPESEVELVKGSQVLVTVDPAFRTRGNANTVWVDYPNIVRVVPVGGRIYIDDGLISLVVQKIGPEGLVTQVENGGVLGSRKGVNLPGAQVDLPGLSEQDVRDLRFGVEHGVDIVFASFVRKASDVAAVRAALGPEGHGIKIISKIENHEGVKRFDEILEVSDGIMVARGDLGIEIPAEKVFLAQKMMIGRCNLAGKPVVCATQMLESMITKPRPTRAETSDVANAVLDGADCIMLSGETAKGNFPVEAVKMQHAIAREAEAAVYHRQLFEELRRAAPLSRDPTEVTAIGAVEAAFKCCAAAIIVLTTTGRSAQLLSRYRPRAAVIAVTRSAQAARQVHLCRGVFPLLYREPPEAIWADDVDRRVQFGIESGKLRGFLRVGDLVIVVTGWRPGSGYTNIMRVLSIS
ASSAY_PROCEDURE: wt PKR cell based assay
REPORTED_ENDPOINT: AC50

ITEM_SMILES: O=C(c1ccc(NS(=O)(=O)c2cccc3nccnc23)cc1)N1CCC(O)(Cc2cc[nH]n2)CC1
REPORTED_MEASUREMENT: 101 to 1000 nM
--
ITEM_SMILES: Cc1cc(CC2(O)CCN(C(=O)c3ccc(NS(=O)(=O)c4cccc5nccnc45)cc3)CC2)sn1
REPORTED_MEASUREMENT: 101 to 1000 nM

Turning now to a further compound:
Problem: I'm curious: which AC50 was measured for `Cc1cc(C2(O)CCN(C(=O)c3ccc(NS(=O)(=O)c4cccc5scnc45)cc3)CC2)sn1` tested on wt PKR (Homo sapiens, UniProt P30613)?
Result: 101 to 1000 nM
